Please provide measured AC50 for the entries that follow.
# ASSAYED SYSTEM: Neuronal acetylcholine receptor subunit alpha-4 (Homo sapiens); also: assay procedure not described here
# Sequence (P43681 whole entry): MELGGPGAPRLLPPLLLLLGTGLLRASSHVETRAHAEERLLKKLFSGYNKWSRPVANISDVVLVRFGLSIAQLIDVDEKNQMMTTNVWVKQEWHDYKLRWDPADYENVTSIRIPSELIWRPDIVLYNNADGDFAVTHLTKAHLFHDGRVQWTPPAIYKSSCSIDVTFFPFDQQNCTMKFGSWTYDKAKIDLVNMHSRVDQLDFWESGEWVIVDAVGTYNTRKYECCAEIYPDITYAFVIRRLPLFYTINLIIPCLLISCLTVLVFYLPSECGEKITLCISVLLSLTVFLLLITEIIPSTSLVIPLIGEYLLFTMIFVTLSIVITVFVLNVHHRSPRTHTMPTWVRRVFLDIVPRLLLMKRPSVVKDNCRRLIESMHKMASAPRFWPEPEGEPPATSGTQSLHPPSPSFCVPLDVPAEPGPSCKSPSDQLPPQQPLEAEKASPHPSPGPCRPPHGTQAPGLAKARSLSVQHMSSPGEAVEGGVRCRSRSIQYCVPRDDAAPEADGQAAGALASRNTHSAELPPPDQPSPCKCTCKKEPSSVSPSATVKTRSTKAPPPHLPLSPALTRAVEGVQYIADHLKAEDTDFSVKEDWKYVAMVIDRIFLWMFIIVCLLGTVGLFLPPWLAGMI

Any idea what AC50 was measured for CCCCOc1cc(C(=O)NCCN(CC)CC)c2ccccc2n1 [DIBUCAINE] ? > 30 µM

Any idea what AC50 was measured for CN1CCCC(n2nc(Cc3ccc(Cl)cc3)c3ccccc3c2=O)CC1 (centres undefined) [AZELASTINE] ? 17 µM

Any idea what AC50 was measured for OCCN1CCN(CCCN2c3ccccc3C=Cc3ccccc32)CC1 [OPIPRAMOL] ? > 30 µM

Any idea what AC50 was measured for CCCCCOC(=O)Nc1nc(=O)n([C@@H]2O[C@H](C)[C@@H](O)[C@H]2O)cc1F [CAPECITABINE] ? > 30 µM

Any idea what AC50 was measured for CC(C)Cc1ccc(CC(=O)O)cc1 [IBUFENAC] ? > 30 µM

Any idea what AC50 was measured for CC[C@]1(O)C[C@@H]2CN(CCc3c([nH]c4ccccc34)[C@@](C(=O)OC)(c3cc4c(cc3OC)N(C)[C@H]3[C@@](O)(C(N)=O)[C@H](O)[C@]5(CC)C=CCN6CC[C@]43[C@@H]65)C2)C1 [VINDESINE] ? > 30 µM

Any idea what AC50 was measured for COC(=O)[C@@H]1CC2=CC(=O)CC[C@]2(C)[C@@]23O[C@@H]2C[C@@]2(C)[C@@H](CC[C@@]24CCC(=O)O4)[C@H]13 [EPLERENONE] ? > 30 µM

Any idea what AC50 was measured for C[C@@H]1O[C@@H]1P(=O)(O)O [FOSFOMYCIN] ? > 10 µM

Any idea what AC50 was measured for O=P(O)(O)C(O)(Cc1cccnc1)P(=O)(O)O [RISEDRONIC ACID] ? > 30 µM

Any idea what AC50 was measured for CCCCN1CCCCC1C(=O)Nc1c(C)cccc1C (centres undefined) [BUPIVACAINE] ? > 30 µM

Any idea what AC50 was measured for CCC1(C2=CCCCCC2)C(=O)NC(=O)NC1=O [HEPTABARBITAL] ? > 10 µM

Any idea what AC50 was measured for CC(C)(C(=O)c1cccnc1)c1cccnc1 [METYRAPONE] ? > 10 µM

Any idea what AC50 was measured for O=C(C[S+]([O-])C(c1ccccc1)c1ccccc1)NO (centres undefined) ? > 30 µM

Any idea what AC50 was measured for CCCC(=O)N1CCCN(c2nc(N)c3cc(OC)c(OC)cc3n2)CC1 [BUNAZOSIN] ? > 30 µM

Any idea what AC50 was measured for CCCS(=O)(=O)Nc1ccc(F)c(C(=O)c2c[nH]c3ncc(-c4ccc(Cl)cc4)cc23)c1F [VEMURAFENIB] ? > 30 µM

Any idea what AC50 was measured for CC(C)(N)Cc1ccc(Cl)cc1 [CHLORPHENTERMINE] ? 10 µM

Any idea what AC50 was measured for COc1ccccc1OCC(O)COC(N)=O (centres undefined) [METHOCARBAMOL] ? > 10 µM

Any idea what AC50 was measured for CCOC(=O)[C@H](CCc1ccccc1)N[C@H]1CCCN2CCC[C@@H](C(=O)O)N2C1=O [CILAZAPRIL] ? > 30 µM

Any idea what AC50 was measured for C[C@]12CCC(=O)C=C1CC[C@@H]1[C@@H]2CC[C@@]2(C)[C@H]1CC[C@]2(C)O [METHYLTESTOSTERONE] ? > 30 µM

Any idea what AC50 was measured for CC(C(=O)O)c1ccc(N2CC=CC2)c(Cl)c1 (centres undefined) [PIRPROFEN] ? > 10 µM

Any idea what AC50 was measured for C1COC(NC(C2CC2)C2CC2)=N1 [RILMENIDINE] ? > 10 µM

Any idea what AC50 was measured for CN(C)C(=O)OC1N=C(c2ccccc2)c2cc(Cl)ccc2N(C)C1=O (centres undefined) [CAMAZEPAM] ? > 10 µM

Any idea what AC50 was measured for `CN1CC(=O)N2[C@H](c3ccc4c(c3)OCO4)c3[nH]c4ccccc4c3C[C@@H]2C1=O` ? > 10 µM

Any idea what AC50 was measured for Cc1cc2c(OCC(CNC(C)(C)C)OC(=O)c3ccccc3)cccc2[nH]1 (centres undefined) [BOPINDOLOL] ? > 30 µM

Any idea what AC50 was measured for CN1CCC2=C(C1)C(c1ccccc1)c1ccccc12 (centres undefined) [PHENINDAMINE] ? > 10 µM

Any idea what AC50 was measured for CN(CCCN1c2ccccc2CCc2ccccc21)CC(=O)c1ccc(Cl)cc1 [LOFEPRAMINE] ? > 30 µM

Any idea what AC50 was measured for Cc1c(C(=O)Nc2ccc(N3C[C@@H](C)O[C@@H](C)C3)nc2)cccc1-c1ccc(OC(F)(F)F)cc1 [SONIDEGIB] ? > 10 µM

Any idea what AC50 was measured for O=C(O)Cc1cn(-c2ccccc2)nc1-c1ccc(Cl)cc1 [LONAZOLAC] ? > 30 µM

Any idea what AC50 was measured for CC(=O)OCC(=O)[C@@]12OC3(CCCC3)O[C@@H]1C[C@H]1[C@@H]3CCC4=CC(=O)C=C[C@]4(C)[C@@]3(F)[C@@H](O)C[C@@]12C [AMCINONIDE] ? > 10 µM

Any idea what AC50 was measured for CCCCCCCCOc1ccccc1C(=O)Nc1ccc(C(=O)OCC[N+](C)(CC)CC)cc1 [OTILONIUM BROMIDE] ? > 30 µM

Any idea what AC50 was measured for CC(=O)O[C@@]12CO[C@@H]1C[C@H](O)[C@@]1(C)C(=O)[C@H](O)C3=C(C)[C@@H](OC(=O)[C@H](O)[C@@H](NC(=O)OC(C)(C)C)c4ccccc4)C[C@@](O)([C@@H](OC(=O)c4ccccc4)[C@H]21)C3(C)C [DOCETAXEL ANHYDROUS] ? > 30 µM

Any idea what AC50 was measured for CN1CCN(C(=O)OC2c3nccnc3C(=O)N2c2ccc(Cl)cn2)CC1 (centres undefined) [ZOPICLONE] ? > 30 µM

Any idea what AC50 was measured for CC(C)NCC(O)COc1ccc(COCCOC(C)C)cc1 (centres undefined) [BISOPROLOL] ? > 10 µM

Any idea what AC50 was measured for Cc1ccc(C(=O)c2cc(O)c(O)c([N+](=O)[O-])c2)cc1 [TOLCAPONE] ? > 10 µM

* * *

# ASSAYED SYSTEM: Melanocortin receptor 3 (Homo sapiens, UniProt P41968); also: assay procedure not described here
# Sequence (P41968 whole entry): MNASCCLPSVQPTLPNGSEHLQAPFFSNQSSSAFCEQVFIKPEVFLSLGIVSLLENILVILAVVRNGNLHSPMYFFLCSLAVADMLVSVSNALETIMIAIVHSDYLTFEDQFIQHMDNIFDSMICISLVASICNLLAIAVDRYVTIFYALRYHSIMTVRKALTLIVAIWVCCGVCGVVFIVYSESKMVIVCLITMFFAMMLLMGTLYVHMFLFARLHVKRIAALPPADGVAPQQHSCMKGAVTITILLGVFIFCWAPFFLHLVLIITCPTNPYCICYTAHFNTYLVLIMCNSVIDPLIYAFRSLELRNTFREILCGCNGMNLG
MEASURE NAME: AC50

Any idea what AC50 was measured for O=P(O)(O)C(O)(Cc1cccnc1)P(=O)(O)O [RISEDRONIC ACID] ? > 30 µM

Any idea what AC50 was measured for NS(=O)(=O)c1cc(Cl)c(Cl)c(S(N)(=O)=O)c1 [DICHLORPHENAMIDE] ? > 10 µM

Any idea what AC50 was measured for Cc1ccc(-c2nc3ccc(C)cn3c2CC(=O)N(C)C)cc1 [ZOLPIDEM] ? > 30 µM

Any idea what AC50 was measured for CCOC(=O)[C@H](CCc1ccccc1)N[C@H]1CCCN2CCC[C@@H](C(=O)O)N2C1=O [CILAZAPRIL] ? > 30 µM

Any idea what AC50 was measured for COc1cc(Nc2c(C#N)cnc3cc(OCCCN4CCN(C)CC4)c(OC)cc23)c(Cl)cc1Cl [BOSUTINIB] ? 18.1 µM

Any idea what AC50 was measured for CNC(=O)c1cc(Oc2ccc(NC(=O)Nc3ccc(Cl)c(C(F)(F)F)c3)cc2)ccn1 [SORAFENIB] ? 23.2 µM

Any idea what AC50 was measured for CCCCN1CCCCC1C(=O)Nc1c(C)cccc1C (centres undefined) [BUPIVACAINE] ? > 30 µM

Any idea what AC50 was measured for C#CC1(OC(N)=O)CCCCC1 [ETHINAMATE] ? > 10 µM

Any idea what AC50 was measured for CC(C)(N)Cc1ccc(Cl)cc1 [CHLORPHENTERMINE] ? > 30 µM

* * *

As a worked illustration, we turn to AC50 data collected for D(1A) dopamine receptor (Homo sapiens).

Any idea what AC50 was measured for `OCCN1CCN(CCCN2c3ccccc3C=Cc3ccccc32)CC1` ? 1.29 µM

Any idea what AC50 was measured for `O=C1c2c(O)c(=O)ccn2N([C@@H]2c3ccccc3SCc3c2ccc(F)c3F)[C@@H]2COCCN12` ? > 30 µM

Any idea what AC50 was measured for `Cc1ccc(O)c2ncccc12` ? > 30 µM

Any idea what AC50 was measured for CCC1(c2cccc(O)c2)CCCCN(C)C1 (centres undefined) ? > 30 µM

Any idea what AC50 was measured for `CN(Cc1cc(Br)cc(Br)c1N)C1CCCCC1` ? > 30 µM

Any idea what AC50 was measured for `O=[N+]([O-])c1cncn1CCN1CCOCC1` ? > 30 µM

Any idea what AC50 was measured for NS(=O)(=O)c1cc2c(cc1Cl)NC(C1CC3C=CC1C3)NS2(=O)=O (centres undefined) [CYCLOTHIAZIDE] ? > 30 µM

Any idea what AC50 was measured for O=C(NC1CCN(CCCCC2(C(=O)NCC(F)(F)F)c3ccccc3-c3ccccc32)CC1)c1ccccc1-c1ccc(C(F)(F)F)cc1 [LOMITAPIDE] ? 1.49 µM

Any idea what AC50 was measured for CN1C(=O)N(C)C2C1N(C)C(=O)N2C (centres undefined) ? > 30 µM

Any idea what AC50 was measured for CC(=O)O[C@]1(C(C)=O)CC[C@H]2[C@@H]3C[C@H](C)C4=CC(=O)CC[C@]4(C)[C@H]3CC[C@@]21C [MEDROXYPROGESTERONE ACETATE] ? > 30 µM

Any idea what AC50 was measured for CC(C(=O)O)c1ccc2c(c1)Cc1cccnc1O2 (centres undefined) ? > 30 µM

Any idea what AC50 was measured for `CN(C)C(=O)Oc1ccc[n+](C)c1` ? > 30 µM

Any idea what AC50 was measured for O=C1NCC2(CCN(CCc3ccccc3)CC2)O1 [FENSPIRIDE] ? 20.8 µM

Any idea what AC50 was measured for `CS(=O)(=O)c1ccc([C@@H](O)[C@@H](CO)NC(=O)C(Cl)Cl)cc1` ? > 30 µM

Any idea what AC50 was measured for CN1CCCC(CN2c3ccccc3Sc3ccccc32)C1 (centres undefined) ? 9.78 µM

Any idea what AC50 was measured for `C(=N\NC1=NCCN1)/c1c2ccccc2c(/C=N/NC2=NCCN2)c2ccccc12` ? 5.24 µM

Any idea what AC50 was measured for `C#C[C@]1(O)CC[C@H]2[C@@H]3CCc4cc(O)ccc4[C@H]3CC[C@@]21C` ? > 30 µM

Any idea what AC50 was measured for `Nc1ccc(C(=O)O)cc1` ? > 30 µM

Any idea what AC50 was measured for `CO[C@@]12[C@H](COC(N)=O)C3=C(C(=O)C(C)=C(N)C3=O)N1C[C@@H]1N[C@@H]12` ? > 30 µM

The measured values listed here are drawn from ChEMBL document CHEMBL5291721.
